Origin of the recorded values: patent US20060228349A1

Target: T1, Biotinylated ADDL preparations (bADDLs) (N-terminal biotin)
T1 construct: Oligomer, number of copies not fixed; also called biotinylated ADDL antigen; high molecular weight 10% bADDL
Experiment: BIACORE, bADDL as antigen; column IgG1#2
Measured pKd of individual entries
pKd (log units): -log10 of the concentration in mol/L.

binder	quantityKind	measuredValue
20C2-23A, affinity matured humanized 20C2, IgG1 humanized A version (antibody, V domains shown, also called 4P1-40) VH: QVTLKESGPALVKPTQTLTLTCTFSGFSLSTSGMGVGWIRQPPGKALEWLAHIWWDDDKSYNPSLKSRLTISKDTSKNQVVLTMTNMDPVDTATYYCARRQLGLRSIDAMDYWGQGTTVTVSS VL: DVVMTQSPLSLPVTPGEPASISCRSSQSILHSNGNTYLEWYLQKPGQSPQLLIYKVSNRFSGVPDRFSGSGSGTDFTLKISRVEAEDVGVYYCHQSSKVPLTFGQGTKLEIKR	pKd	10.18

Query :: Can you share its pKd? I mean this binder: 20C2-2A, affinity matured humanized 20C2, IgG1 humanized A version (antibody, V domains shown, also called SJ-p1-18) VH: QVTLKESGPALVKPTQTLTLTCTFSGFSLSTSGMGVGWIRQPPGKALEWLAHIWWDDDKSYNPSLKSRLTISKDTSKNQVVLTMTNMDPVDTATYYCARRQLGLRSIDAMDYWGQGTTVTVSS VL: DVVMTQSPLSLPVTPGEPASISCRSSQSILHSNGNTYLEWYLQKPGQSPQLLIYKVSNRFSGVPDRFSGSGSGTDFTLKISRVEAEDVGVYYCFQATRVPLTFGQGTKLEIKR
Result :: 12.52
